# experimentalProtocol: Solubility screening of Formula (I) in crystallization solvents at RT and 50° C. (TABLE 3)
# Assay type: physicochemical
# assaySetup: methyl isobutyl ketone (MIBK), organic solvent or mixture, thermodynamic from solid, MIBK; RT; read-out: Solubility Range
# From the text: This example covers crystallization of Formula (I) in multiple solvent systems. Solvents were selected to span a range of polarities, functionalities, and classifications according to the International Conference on Harmonization (ICH) with preferences given to class II and class III solvents. […] After each addition of solvent, the vials were shaken and visually inspected for residual solids. […]

[
  {
    "smilesRepresentation": "CC[C@H](C)C(=O)N1CCC(NC(=O)Nc2ccc(OC(F)(F)F)c(F)c2)CC1",
    "solubility": "≥ 48 mg/mL"
  }
]
